biological target: HLA-B*15:17; assay: IEDB peptide-MHC binding, purified MHC/direct/fluorescence; filed as Kd, often an IC50 or EC50 that approximates it; bounds were set here for any values at or beyond the usual limits of such assays; conditions: source organism: Toxoplasma gondii RH
Endpoint: Kd (nM)

| Sequence Chain | Target Or System | Endpoint | Quantitative Result |
| --- | --- | --- | --- |
| LTMNLVSDI | HLA-B*15:17 | Kd | 3 |

###

target: HLA-B*15:17; assay: IEDB peptide-MHC binding, purified MHC/direct/fluorescence; filed as Kd, often an IC50 or EC50 that approximates it; bounds were set here for any values at or beyond the usual limits of such assays; details: source organism: Marburg virus - Musoke, Kenya, 1980

| Sequence Chain | Target Or System | Kd |
| --- | --- | --- |
| GEGSGARLL | HLA-B*15:17 | ≥ 20 µM |

###

target: HLA-B*37:01; assay: IEDB peptide-MHC binding, purified MHC/competitive/fluorescence; bounds were set here for any values at or beyond the usual limits of such assays; settings: source organism: Gorilla gorilla gorilla
pIC50: −log10 of the molar value.
Endpoint: pIC50

| Sequence Chain | Result |
| --- | --- |
| RYSHWTKL | ≤ 4.70 |

###

target: HLA-B*58:01; assay: IEDB peptide-MHC binding, purified MHC/direct/fluorescence; filed as Kd, often an IC50 or EC50 that approximates it; bounds were set here for any values at or beyond the usual limits of such assays; conditions: source organism: Homo sapiens

| Sequence Chain | Kd, nM |
| --- | --- |
| IADMGHLKY | 2000 |

###

target: HLA-A*03:01; assay: IEDB peptide-MHC binding, purified MHC/direct/fluorescence; filed as Kd, often an IC50 or EC50 that approximates it; bounds were set here for any values at or beyond the usual limits of such assays; settings: source organism: Orthohantavirus hantanense
pKd: −log10 of the molar value.

| Sequence Chain | pKd |
| --- | --- |
| MLYILGLFK | 6.99 |

###

biological target: HLA-A*26:01; assay: IEDB peptide-MHC binding, purified MHC/direct/fluorescence; filed as Kd, often an IC50 or EC50 that approximates it; bounds were set here for any values at or beyond the usual limits of such assays; details: source organism: Variola virus

| Sequence Chain | Kd |
| --- | --- |
| IHIPGDTLF | ≥ 20 µM |

###

target: HLA-B*27:20; assay: IEDB peptide-MHC binding, purified MHC/competitive/fluorescence; filed as Kd, often an IC50 or EC50 that approximates it; bounds were set here for any values at or beyond the usual limits of such assays; details: source organism: Human herpesvirus 4 strain B95-8
pKd: −log10 of the molar value.
Endpoint: pKd

| Sequence Chain | Result |
| --- | --- |
| RRRRRRAAL | ≥ 9.00 |

###

biological target: HLA-A*01:01; assay: IEDB peptide-MHC binding, purified MHC/competitive/fluorescence; bounds were set here for any values at or beyond the usual limits of such assays; conditions: source organism: Zaire ebolavirus
pIC50: −log10 of the molar value.

| Sequence Chain | Target Or System | pIC50 |
| --- | --- | --- |
| TLDGQQFYW | HLA-A*01:01 | 4.45 |
| FSTSDGKEY | HLA-A*01:01 | 4.84 |
